B1: Ventral anterior homeobox 1, residues 102 to 157; numbered along this chain, Q5SQQ9 (parent)
chain: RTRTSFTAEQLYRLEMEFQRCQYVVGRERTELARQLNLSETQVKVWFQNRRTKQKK

Variants of: B1
assayOverview: abundance fitness (aPCA) (normalised: wild type 0, dead -1); higher = more abundant; growth selection in yeast, the domain comes from the species named
experimentalContext: Homo sapiens
Listed here: items and their measured abundance fitness.

Use these answered entries as a reference point.
K56Y -0.039
L11T -0.149
M16Y -0.173
V24M -0.16
V24L 0.059
Y12P -0.967

Query abundance fitness for V43L
-0.166

Query abundance fitness for F47A
-1.02

Query abundance fitness for Q48E
-0.193
